Known IC50 of a selection of compounds
- System: JEG-3;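 note: growth inhibition of human JEG-3 cells, read out with a cell viability assay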
- ASSAY METHOD TEXT: cells
- Assay type: functional, cell-based, Homo sapiens
- SETTINGS: Homo sapiens, JEG-3
- Description: SANGER: Inhibition of human JEG-3 cell growth in a cell viability assay.
Return type: number; implicit unit µM.

Here is how some compounds turned out for IC50.
- CC(C)CCN1c2nc(Nc3cc(F)c(O)c(F)c3)ncc2N(C)C(=O)C1C (stereo not given): 3.69
- Nc1ccn([C@@H]2O[C@H](CO)[C@@H](O)C2(F)F)c(=O)n1: 0.277

(Q) Requested field: IC50. Item: `CC(C)c1ccccc1Cc1cc(C(=O)Nc2ccc(S(=O)(=O)c3ccccc3C(C)(C)C)cc2)c(O)c(O)c1O`
(A) 0.736

====

Items are presented alongside their recorded pIC50.
- Tested on: PC-3;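 note: cell viability assay measuring growth inhibition of PC-3 cells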
- ASSAY METHOD TEXT: cells
- Format: functional, cell-based, Homo sapiens
- SETTINGS: Homo sapiens, PC-3
- Description: SANGER: Inhibition of human PC-3 cell growth in a cell viability assay.
pIC50: −log10 of the molar value.

Example results:
* CS(=O)(=O)c1ccc(C(=O)Nc2ccc(Cl)c(-c3ccccn3)c2)c(Cl)c1 [VISMODEGIB] | < 5.00
* Cc1cc([N+](=O)[O-])ccc1NS(=O)(=O)c1cc(Cl)ccc1Cl | 5.09

(Q) // query pIC50 value for entry CCC/C=C/C=C/C(=O)O[C@H]1/C(=C/C(=O)OC)C[C@H]2C[C@H]([C@@H](C)O)OC(=O)C[C@H](O)C[C@@H]3C[C@H](OC(C)=O)C(C)(C)[C@](O)(C[C@@H]4C/C(=C/C(=O)OC)C[C@H](/C=C/C(C)(C)[C@]1(O)O2)O4)O3 [BRYOSTATIN 1]
(A) < 8.10

====

- Tested on: EW-3;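 note: cell viability assay read-out, IC50 reflects inhibition of growth of the EW-3 cells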
- ASSAY METHOD TEXT: cells
- Format: functional, cell-based, Homo sapiens
- SETTINGS: Homo sapiens, EW-3
- Description: SANGER: Inhibition of human EW-3 cell growth in a cell viability assay.
READOUT NAME: IC50

These recorded examples may help you get a feel for the data.
- OCCCNc1cc(-c2ccnc(Nc3cccc(Cl)c3)n2)ccn1: > 0.256 µM
- Nc1cccc2c1CN(C1CCC(=O)NC1=O)C2=O (stereo not drawn) [LENALIDOMIDE]: > 5 µM

Could you now consider this next compound?
(Q) Please report the recorded IC50 for `C#Cc1cccc(Nc2ncnc3cc(OCCOC)c(OCCOC)cc23)c1` .
(A) > 2 µM

====

- Tested on: EFM-19;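 note: growth inhibition of human EFM-19 cells, measured in a cell viability assay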
- ASSAY METHOD TEXT: cells
- Type: functional, cell-based, Homo sapiens
- SETTINGS: efm-19
- Description: SANGER: Inhibition of human EFM-19 cell growth in a cell viability assay.
READOUT NAME: IC50

(Q) Recorded IC50 of `BLEOMYCIN` , please.
(A) 14.8 nM

====

- System: VA-ES-BJ;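 note: growth inhibition of the VA-ES-BJ cell line, read out by a cell viability assay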
- ASSAY METHOD TEXT: cells
- Assay type: functional, cell-based, Homo sapiens
- SETTINGS: Homo sapiens, VA-ES-BJ
- Description: SANGER: Inhibition of human VA-ES-BJ cell growth in a cell viability assay.
READOUT NAME: IC50 (nM)
# value in nM; strip the unit string

For orientation, consider the following solved cases.
• CO[C@H]1C[C@@H]2CC[C@@H](C)[C@@](O)(O2)C(=O)C(=O)N2CCCC[C@H]2C(=O)O[C@H]([C@H](C)C[C@@H]2CC[C@@H](OC(=O)C(C)(CO)CO)[C@H](OC)C2)CC(=O)[C@H](C)/C=C(\C)[C@@H](O)[C@@H](OC)C(=O)[C@H](C)C[C@H](C)/C=C/C=C/C=C/1C = 5.9
• COc1cc2ncn(-c3cc(OCc4ccccc4C(F)(F)F)c(C(N)=O)s3)c2cc1OC [GW843682X] = 22.7
• OCCCNc1cc(-c2ccnc(Nc3cccc(Cl)c3)n2)ccn1 = 41.6

Here's the next entry for you.
(Q) Report IC50 for `COc1cccc2c1C(=O)c1c(O)c3c(c(O)c1C2=O)C[C@@](O)(C(=O)CO)C[C@@H]3O[C@H]1C[C@H](N)[C@H](O)[C@H](C)O1` please.
(A) 33.4
